Molecular target: Acetylcholinesterase (Electrophorus electricus, UniProt O42275)
Sequence (O42275 whole entry): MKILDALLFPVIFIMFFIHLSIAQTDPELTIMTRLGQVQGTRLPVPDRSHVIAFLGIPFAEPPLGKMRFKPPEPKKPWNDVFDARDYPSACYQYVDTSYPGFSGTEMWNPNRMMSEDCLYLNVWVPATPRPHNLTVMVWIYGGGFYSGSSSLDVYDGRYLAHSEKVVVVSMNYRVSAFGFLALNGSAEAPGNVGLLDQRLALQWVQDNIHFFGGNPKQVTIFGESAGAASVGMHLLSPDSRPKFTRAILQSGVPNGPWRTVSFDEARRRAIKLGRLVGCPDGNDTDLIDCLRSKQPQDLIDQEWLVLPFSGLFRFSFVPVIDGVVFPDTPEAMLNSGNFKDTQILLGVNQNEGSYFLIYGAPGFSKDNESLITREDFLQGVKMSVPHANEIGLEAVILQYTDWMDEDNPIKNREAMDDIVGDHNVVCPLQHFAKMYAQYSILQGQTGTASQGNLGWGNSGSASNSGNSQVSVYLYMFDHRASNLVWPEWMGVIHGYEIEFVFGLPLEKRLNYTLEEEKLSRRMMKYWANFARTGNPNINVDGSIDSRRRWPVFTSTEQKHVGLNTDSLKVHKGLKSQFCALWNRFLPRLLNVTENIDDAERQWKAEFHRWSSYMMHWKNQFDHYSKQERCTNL
Doc: threshold 20 µM (exclusive). Items with IC50 beneath it return yes (1); others return no (0).

compound-structure-string: CCN(CCCCCCOc1ccc(/C=C/c2cc(OC)cc(OC)c2)cc1)Cc1ccccc1
group: yes (1)
--
compound-structure-string: COc1cc(/C=C/c2ccc(OCCCN(C)Cc3ccccc3)cc2)cc(OC)c1
group: no (0)
--
compound-structure-string: COc1cc(/C=C/c2ccc(OCCCCN(C)Cc3ccccc3)cc2)cc(OC)c1
group: no (0)
--
compound-structure-string: COc1cc(/C=C/c2ccc(OCCCCCCN(C)C)cc2)cc(OC)c1
group: yes (1)
--
compound-structure-string: CCN(CC)CCCCCCOc1ccc(/C=C/c2cc(OC)cc(OC)c2)cc1
group: yes (1)
--
compound-structure-string: COc1cc(/C=C/c2ccc(OCCCCCCCN(C)Cc3ccccc3)cc2)cc(OC)c1
group: no (0)

---

Target: Cholinesterase (Equus caballus, UniProt P81908)
Sequence (P81908 whole entry): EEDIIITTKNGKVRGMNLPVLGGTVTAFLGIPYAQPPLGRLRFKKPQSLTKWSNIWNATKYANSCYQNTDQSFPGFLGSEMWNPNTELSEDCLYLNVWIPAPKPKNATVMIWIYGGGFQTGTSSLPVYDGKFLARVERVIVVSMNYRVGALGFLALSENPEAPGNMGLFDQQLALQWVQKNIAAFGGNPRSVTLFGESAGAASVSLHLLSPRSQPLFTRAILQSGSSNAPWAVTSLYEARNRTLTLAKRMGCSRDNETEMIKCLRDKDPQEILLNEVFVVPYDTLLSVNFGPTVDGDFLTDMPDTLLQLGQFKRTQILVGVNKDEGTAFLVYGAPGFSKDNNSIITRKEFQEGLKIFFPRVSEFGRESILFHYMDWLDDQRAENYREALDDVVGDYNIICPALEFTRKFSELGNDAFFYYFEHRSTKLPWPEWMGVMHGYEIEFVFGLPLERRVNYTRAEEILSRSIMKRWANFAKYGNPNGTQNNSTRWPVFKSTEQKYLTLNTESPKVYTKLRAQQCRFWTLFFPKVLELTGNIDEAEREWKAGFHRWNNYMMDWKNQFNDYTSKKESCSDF
pIC50: −log10 of the molar value.

compound-structure-string: COc1cc(/C=C/c2ccc(OCCCCCCN3CCOCC3)cc2)cc(OC)c1
readout-relation: =
pIC50: 4.46
//
compound-structure-string: COc1cc(/C=C/c2ccc(OCCCCCCN3CCCCC3)cc2)cc(OC)c1
readout-relation: =
pIC50: 4.97
//
compound-structure-string: COc1cc(/C=C/c2ccc(OCCCCCCN3CCCC3)cc2)cc(OC)c1
readout-relation: =
pIC50: 5.09
//
compound-structure-string: CCN(CCCCCCOc1ccc(/C=C/c2cc(OC)cc(OC)c2)cc1)Cc1cccc(OC)c1
readout-relation: <
pIC50: 4.00
//
compound-structure-string: COc1cc(/C=C/c2ccc(OCCCCCCCCN(C)Cc3ccccc3)cc2)cc(OC)c1
readout-relation: =
pIC50: 4.33
//
compound-structure-string: CCN(CCCCCCOc1ccc(/C=C/c2cc(OC)cc(OC)c2)cc1)Cc1ccc(F)cc1
readout-relation: =
pIC50: 4.07
//
compound-structure-string: COc1cc(/C=C/c2ccc(OCCCCCCN3CCC(O)CC3)cc2)cc(OC)c1
readout-relation: =
pIC50: 4.64
//
compound-structure-string: CCN(CCCCCCOc1ccc(/C=C/c2cc(OC)cc(OC)c2)cc1)Cc1ccc(OC)cc1
readout-relation: <
pIC50: 4.00

Source of measurements: ChEMBL document CHEMBL3132840
